test: Plasma pharmacokinetics of DT2216 in patients, phase 1 dose escalation; type: in vivo, human; settings: human, plasma, iv, 0.04 mg/kg, Cycle 1 Day 22, 0.04 mg/kg IV BIW, plasma, mean (CV%), N = 1; read-out: AUC0−24
measurement name: AUC(0-t) (ng·h/mL)
The figure you give is taken to be in ng·h/mL; do not add the unit.

Inquiry: Would you mind telling me what AUC(0-t) value was observed for `Cc1ncsc1-c1ccc([C@H](C)NC(=O)[C@@H]2C[C@@H](O)CN2C(=O)[C@@H](NC(=O)CCCCCC(=O)N2CCN(CC[C@H](CSc3ccccc3)Nc3ccc(S(=O)(=O)NC(=O)c4ccc(N5CCN(CC6=C(c7ccc(Cl)cc7)CCC(C)(C)C6)CC5)cc4)cc3S(=O)(=O)C(F)(F)F)CC2)C(C)(C)C)cc1` ?
Reply text: 5350

====

assay: Plasma pharmacokinetics of DT2216 in patients, phase 1 dose escalation; type: in vivo, human; details: human, plasma, iv, 0.4 mg/kg, Cycle 1 Day 22, 0.4 mg/kg IV BIW, plasma, mean (CV%), N = 4; read-out: AUClast
measurement name: AUC(0-t)

Inquiry: Would you mind telling me what AUC(0-t) value was observed for `Cc1ncsc1-c1ccc([C@H](C)NC(=O)[C@@H]2C[C@@H](O)CN2C(=O)[C@@H](NC(=O)CCCCCC(=O)N2CCN(CC[C@H](CSc3ccccc3)Nc3ccc(S(=O)(=O)NC(=O)c4ccc(N5CCN(CC6=C(c7ccc(Cl)cc7)CCC(C)(C)C6)CC5)cc4)cc3S(=O)(=O)C(F)(F)F)CC2)C(C)(C)C)cc1` ?
Reply text: 54000 ng·h/mL

====

Assay: Plasma pharmacokinetics of DT2216 in patients, phase 1 dose escalation
Format: in vivo, human
Conditions: human, plasma, iv, 0.4 mg/kg, Cycle 1 Day 22, 0.4 mg/kg IV BIW, plasma, mean (CV%), N = 4; read-out: AUC0−24
Method: Dose escalation consisted of the administration of DT2216 intravenously twice weekly at several different doses outlined in protocol attached. The starting dose was 0.04 mg/kg, established based on pre-clinical toxicity studies. Safety was evaluated using CTCAE version 5.0. […] Patients were allowed a maximum of two intra-patient dose escalations. […] The extent of disease was evaluated using imaging studies and disease-appropriate tumor markers every 8 weeks from day 1 of the first cycle. […]
measurement name: AUC(0-t)

Inquiry: Would you mind telling me what AUC(0-t) value was observed for Cc1ncsc1-c1ccc([C@H](C)NC(=O)[C@@H]2C[C@@H](O)CN2C(=O)[C@@H](NC(=O)CCCCCC(=O)N2CCN(CC[C@H](CSc3ccccc3)Nc3ccc(S(=O)(=O)NC(=O)c4ccc(N5CCN(CC6=C(c7ccc(Cl)cc7)CCC(C)(C)C6)CC5)cc4)cc3S(=O)(=O)C(F)(F)F)CC2)C(C)(C)C)cc1 [DT2216] ?
Reply text: 53700 ng·h/mL

====

experiment: Plasma pharmacokinetics of DT2216 in patients, phase 1 dose escalation; assay type: in vivo, human; settings: human, plasma, iv, 0.4 mg/kg, Cycle 1 Day 22, 0.4 mg/kg IV BIW, plasma, mean (CV%), N = 4; read-out: T½ (converted)
measurement name: half-life
Answer with the figure and its unit, nothing else.

Inquiry: Would you mind telling me what half-life value was observed for Cc1ncsc1-c1ccc([C@H](C)NC(=O)[C@@H]2C[C@@H](O)CN2C(=O)[C@@H](NC(=O)CCCCCC(=O)N2CCN(CC[C@H](CSc3ccccc3)Nc3ccc(S(=O)(=O)NC(=O)c4ccc(N5CCN(CC6=C(c7ccc(Cl)cc7)CCC(C)(C)C6)CC5)cc4)cc3S(=O)(=O)C(F)(F)F)CC2)C(C)(C)C)cc1 [DT2216] ?
Reply text: 6.7 h

====

assay: Plasma pharmacokinetics of DT2216 in patients, phase 1 dose escalation; assay type: in vivo, human; conditions: human, plasma, iv, 0.08 mg/kg, Cycle 1 Day 22, 0.08 mg/kg IV BIW, plasma, mean (CV%), N = 1; read-out: T½ (converted)
measurement name: half-life
Answer with the figure and its unit, nothing else.

Inquiry: Would you mind telling me what half-life value was observed for Cc1ncsc1-c1ccc([C@H](C)NC(=O)[C@@H]2C[C@@H](O)CN2C(=O)[C@@H](NC(=O)CCCCCC(=O)N2CCN(CC[C@H](CSc3ccccc3)Nc3ccc(S(=O)(=O)NC(=O)c4ccc(N5CCN(CC6=C(c7ccc(Cl)cc7)CCC(C)(C)C6)CC5)cc4)cc3S(=O)(=O)C(F)(F)F)CC2)C(C)(C)C)cc1 [DT2216] ?
Reply text: 518 min

====

Test: Plasma pharmacokinetics of DT2216 in patients, phase 1 dose escalation
Type: in vivo, human
Conditions: human, plasma, iv, 0.4 mg/kg, Cycle 1 Day 1, 0.4 mg/kg IV, plasma, mean (CV%), N = 4; read-out: CL (converted)
Procedure: Dose escalation consisted of the administration of DT2216 intravenously twice weekly at several different doses outlined in protocol attached. The starting dose was 0.04 mg/kg, established based on pre-clinical toxicity studies. Safety was evaluated using CTCAE version 5.0. […] Patients were allowed a maximum of two intra-patient dose escalations. […] The extent of disease was evaluated using imaging studies and disease-appropriate tumor markers every 8 weeks from day 1 of the first cycle. […]
measurement name: clearance (mL/h/kg)
The figure you give is taken to be in mL/h/kg; do not add the unit.

Inquiry: Would you mind telling me what clearance value was observed for `Cc1ncsc1-c1ccc([C@H](C)NC(=O)[C@@H]2C[C@@H](O)CN2C(=O)[C@@H](NC(=O)CCCCCC(=O)N2CCN(CC[C@H](CSc3ccccc3)Nc3ccc(S(=O)(=O)NC(=O)c4ccc(N5CCN(CC6=C(c7ccc(Cl)cc7)CCC(C)(C)C6)CC5)cc4)cc3S(=O)(=O)C(F)(F)F)CC2)C(C)(C)C)cc1` ?
Reply text: 5.57

====

experiment: Plasma pharmacokinetics of DT2216 in patients, phase 1 dose escalation; assay type: in vivo, human; conditions: human, plasma, iv, plasma, over dose range 0.04 mg/kg to 0.4 mg/kg IV; read-out: mean Cmax values
measurement name: Cmax

Inquiry: Would you mind telling me what Cmax value was observed for Cc1ncsc1-c1ccc([C@H](C)NC(=O)[C@@H]2C[C@@H](O)CN2C(=O)[C@@H](NC(=O)CCCCCC(=O)N2CCN(CC[C@H](CSc3ccccc3)Nc3ccc(S(=O)(=O)NC(=O)c4ccc(N5CCN(CC6=C(c7ccc(Cl)cc7)CCC(C)(C)C6)CC5)cc4)cc3S(=O)(=O)C(F)(F)F)CC2)C(C)(C)C)cc1 [DT2216] ?
Reply text: 738 to 8590 ng/mL

====

assay: Plasma pharmacokinetics of DT2216 in patients, phase 1 dose escalation; assay type: in vivo, human; settings: human, plasma, iv, 0.24 mg/kg, Cycle 1 Day 22, 0.24 mg/kg IV BIW, plasma, mean (CV%), N = 6; read-out: Cmax
measurement name: Cmax (ng/mL)
The figure you give is taken to be in ng/mL; do not add the unit.

Inquiry: Would you mind telling me what Cmax value was observed for `Cc1ncsc1-c1ccc([C@H](C)NC(=O)[C@@H]2C[C@@H](O)CN2C(=O)[C@@H](NC(=O)CCCCCC(=O)N2CCN(CC[C@H](CSc3ccccc3)Nc3ccc(S(=O)(=O)NC(=O)c4ccc(N5CCN(CC6=C(c7ccc(Cl)cc7)CCC(C)(C)C6)CC5)cc4)cc3S(=O)(=O)C(F)(F)F)CC2)C(C)(C)C)cc1` ?
Reply text: 3090

====

test: Plasma pharmacokinetics of DT2216 in patients, phase 1 dose escalation; format: in vivo, human; conditions: human, plasma, iv, 0.32 mg/kg, Cycle 1 Day 22, 0.32 mg/kg IV BIW, plasma, mean (CV%), N = 5; read-out: AUC0−∞
measurement name: AUC(0-inf)

Inquiry: Would you mind telling me what AUC(0-inf) value was observed for `Cc1ncsc1-c1ccc([C@H](C)NC(=O)[C@@H]2C[C@@H](O)CN2C(=O)[C@@H](NC(=O)CCCCCC(=O)N2CCN(CC[C@H](CSc3ccccc3)Nc3ccc(S(=O)(=O)NC(=O)c4ccc(N5CCN(CC6=C(c7ccc(Cl)cc7)CCC(C)(C)C6)CC5)cc4)cc3S(=O)(=O)C(F)(F)F)CC2)C(C)(C)C)cc1` ?
Reply text: 35000 ng·h/mL

====

test: Plasma pharmacokinetics of DT2216 in patients, phase 1 dose escalation; format: in vivo, human; conditions: human, plasma, iv, 0.32 mg/kg, Cycle 1 Day 1, 0.32 mg/kg IV, plasma, mean (CV%), N = 6; read-out: Cmax
measurement name: Cmax (ng/mL)
The figure you give is taken to be in ng/mL; do not add the unit.

Inquiry: Would you mind telling me what Cmax value was observed for `Cc1ncsc1-c1ccc([C@H](C)NC(=O)[C@@H]2C[C@@H](O)CN2C(=O)[C@@H](NC(=O)CCCCCC(=O)N2CCN(CC[C@H](CSc3ccccc3)Nc3ccc(S(=O)(=O)NC(=O)c4ccc(N5CCN(CC6=C(c7ccc(Cl)cc7)CCC(C)(C)C6)CC5)cc4)cc3S(=O)(=O)C(F)(F)F)CC2)C(C)(C)C)cc1` ?
Reply text: 5710
